protocol.text: Cytotoxicity against Hepatocyte cells assessed as cell viability by MTT assay
Type: cell-based
assay.setup: hepatocytes; read-out: TC50 (the source's name)
observed.property: CC50

Below: 3 molecules and their reported CC50.
{"molecule": "C=CC(C)(C)c1cc(/C=C/C(=O)c2ccc(O)cc2)c(OC)cc1O", "CC50": "63.4 µM"}
{"molecule": "CC[C@]1(O)C[C@@H]2CN(CCc3c([nH]c4ccccc34)[C@@](C(=O)OC)(c3cc4c(cc3OC)N(C)[C@H]3[C@@](O)(C(=O)OC)[C@H](OC(C)=O)[C@]5(CC)C=CCN6CC[C@]43[C@@H]65)C2)C1", "CC50": "54.5 µM"}
{"molecule": "CC[C@@]1([C@@H]2O[C@@H]([C@H]3O[C@@](O)(CO)[C@H](C)C[C@@H]3C)C[C@@H]2C)CC[C@H]([C@]2(C)CC[C@]3(C[C@H](O)[C@@H](C)[C@@H]([C@@H](C)[C@@H](OC)[C@H](C)C(=O)O)O3)O2)O1", "CC50": "> 32 µM"}

I'm hoping you can list CC50 for every molecule here, please.
1. CC(Cc1ccc(O)c(O)c1)C(C)Cc1ccc(O)c(O)c1 (configuration not stated) [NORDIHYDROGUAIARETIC ACID]
2. COCC(=O)O[C@]1(CCN(C)CCCc2nc3ccccc3[nH]2)CCc2cc(F)ccc2[C@@H]1C(C)C
3. CC(N)C12CC3CC(CC(C3)C1)C2 (configuration not stated)
4. O=C1C(O)=C([C@H]2CC[C@H](c3ccc(Cl)cc3)CC2)C(=O)c2ccccc21
5. CC(C)Nc1cccnc1N1CCN(C(=O)c2cc3cc(NS(C)(=O)=O)ccc3[nH]2)CC1

[out]
["> 100 µM", "67.9 µM", "> 100 µM", "16.5 µM", "> 100 µM"]

I'm hoping you can list CC50 for every molecule here, please.
1. COc1cc(NC(C)CCCN)c2ncccc2c1 (configuration not stated)
2. CO[C@@H]1C[C@@H](C[C@H]2CC[C@H](C)[C@H]([C@@H](C)C(=O)O)O2)O[C@]2(O[C@](C)([C@H]3CC[C@@](C)([C@@H]4O[C@@H]([C@H]5O[C@@](O)(CO)[C@H](C)C[C@@H]5C)C[C@@H]4C)O3)C[C@H]2C)[C@@H]1C
3. CCOC(=O)NC(=S)Nc1ccccc1NC(=S)NC(=O)OCC [THIOPHANATE]
4. CCN(CC)CCCC(C)Nc1c2ccc(Cl)cc2nc2ccc(OC)cc12 (configuration not stated)
5. CC(CCc1ccc(O)cc1)NCCc1ccc(O)c(O)c1 (configuration not stated)
6. COC(=O)Nc1nc2cc(Sc3ccccc3)ccc2[nH]1
7. CC(C)(C)NC(=O)[C@@H]1CN(Cc2cccnc2)CCN1C[C@@H](O)C[C@@H](Cc1ccccc1)C(=O)N[C@H]1c2ccccc2C[C@H]1O

[out]
["12.5 µM", "13.2 µM", "> 100 µM", "> 11.6 µM", "> 100 µM", "> 100 µM", "8.77 µM"]

I'm hoping you can list CC50 for every molecule here, please.
1. CC[C@H](C)[C@H](NC(=O)[C@H]([C@@H](C)CC)N(C)C(C)=O)C(=O)N[C@H](C(=O)N[C@@H](CC(C)C)C(=O)[C@@]1(C)CO1)[C@@H](C)O
2. Clc1ccc(COC(Cn2ccnc2)c2ccc(Cl)cc2Cl)c(Cl)c1 (configuration not stated)

[out]
1: 47.3 µM; 2: 70.4 µM
